Data origin, for the record: ChEMBL document CHEMBL4038338

target: Calpain-1 catalytic subunit (Homo sapiens, UniProt P07384); experiment: Inhibition of human erythrocytes calpain-1 using Suc-Leu-Tyr-AMC as substrate by kinetic fluorescence assay; settings: read-out: Ki
Sequence (P07384 whole entry): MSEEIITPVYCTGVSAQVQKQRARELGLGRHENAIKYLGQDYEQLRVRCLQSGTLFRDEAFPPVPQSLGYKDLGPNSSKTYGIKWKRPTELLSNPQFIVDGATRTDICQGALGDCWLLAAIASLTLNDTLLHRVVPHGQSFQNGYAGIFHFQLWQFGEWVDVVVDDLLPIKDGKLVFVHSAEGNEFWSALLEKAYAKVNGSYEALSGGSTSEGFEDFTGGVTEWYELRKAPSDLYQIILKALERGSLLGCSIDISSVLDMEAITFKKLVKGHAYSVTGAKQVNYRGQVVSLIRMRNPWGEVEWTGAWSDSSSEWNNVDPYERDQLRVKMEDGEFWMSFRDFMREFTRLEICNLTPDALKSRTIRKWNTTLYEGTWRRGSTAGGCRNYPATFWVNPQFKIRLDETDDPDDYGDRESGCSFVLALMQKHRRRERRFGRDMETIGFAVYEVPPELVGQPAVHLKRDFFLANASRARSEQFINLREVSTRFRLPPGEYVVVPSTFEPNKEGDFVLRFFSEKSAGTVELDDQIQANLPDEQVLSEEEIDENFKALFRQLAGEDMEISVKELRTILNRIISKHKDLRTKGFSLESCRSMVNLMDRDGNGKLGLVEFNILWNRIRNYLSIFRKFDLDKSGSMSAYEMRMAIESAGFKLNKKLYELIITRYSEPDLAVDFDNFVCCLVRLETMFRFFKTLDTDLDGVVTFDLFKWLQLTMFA
quantity.kind: Ki (nM)
Your answer should be a plain number; it is taken to be in nM.

*Q* Tell me Ki reported for COc1ccc(-c2ccn(-c3ncccc3C(=O)NC(Cc3ccccc3)C(=O)C(N)=O)n2)cc1 (centres undefined)
*A* 83

*Q* Tell me Ki reported for CCCCC(NC(=O)c1cccnc1-n1cnc(-c2ccccc2)c1)C(=O)C(N)=O (centres undefined)
*A* 38

*Q* Tell me Ki reported for CCCCC(NC(=O)c1cccnc1-n1ccc(-c2ccccc2)n1)C(=O)C(N)=O (centres undefined)
*A* 32

*Q* Tell me Ki reported for NC(=O)C(=O)C(Cc1ccccc1)NC(=O)c1cccnc1-n1cccn1 (centres undefined)
*A* 164

*Q* Tell me Ki reported for NC(=O)C(=O)C(Cc1ccccc1)NC(=O)c1cccnc1-n1cnc(-c2ccccc2)c1 (centres undefined)
*A* 45

*Q* Tell me Ki reported for NC(=O)C(=O)C(Cc1ccccc1)NC(=O)c1cccnc1-n1ccc(C2CCCCC2)n1 (centres undefined)
*A* 56

*Q* Tell me Ki reported for NC(=O)C(=O)C(Cc1ccccc1)NC(=O)c1cccnc1-n1ccc(-c2ccc(F)cc2)n1 (centres undefined)
*A* 34

*Q* Tell me Ki reported for NC(=O)C(=O)C(Cc1ccccc1)NC(=O)c1cccnc1-n1cc(-c2ccccc2)cn1 (centres undefined)
*A* 21

*Q* Tell me Ki reported for NC(=O)C(=O)C(Cc1ccccc1)NC(=O)c1cccnc1-n1ccc(-c2ccc(C(F)(F)F)cc2)n1 (centres undefined)
*A* 72

*Q* Tell me Ki reported for CCN(CC)Cc1ccc(-c2ccn(-c3ncccc3C(=O)NC(Cc3ccccc3)C(=O)C(N)=O)n2)cc1 (centres undefined)
*A* 100

*Q* Tell me Ki reported for NC(=O)C(=O)C(Cc1ccccc1)NC(=O)c1cccnc1-n1cc2ccccc2n1 (centres undefined)
*A* 46

*Q* Tell me Ki reported for NC(=O)C(=O)C(Cc1ccccc1)NC(=O)c1cccnc1-c1csc(-c2ccccc2)n1 (centres undefined)
*A* 38

*Q* Tell me Ki reported for NC(=O)C(=O)C(Cc1ccccc1)NC(=O)c1ccccc1-n1ccc(-c2ccccc2)n1 (centres undefined)
*A* 43

*Q* Tell me Ki reported for CCN(CC)Cc1ccc(/C=C/c2ncccc2C(=O)NC(Cc2ccccc2)C(=O)C(N)=O)cc1 (centres undefined)
*A* 109

*Q* Tell me Ki reported for NC(=O)C(=O)C(Cc1ccccc1)NC(=O)c1cccnc1N1CCN(c2ccccc2)CC1 (centres undefined)
*A* 250

*Q* Tell me Ki reported for CCCCC(NC(=O)c1cccnc1-c1csc(-c2ccccc2)n1)C(=O)C(N)=O (centres undefined)
*A* 122

*Q* Tell me Ki reported for NC(=O)C(=O)C(Cc1ccccc1)NC(=O)c1cccnc1N1CCC(c2ccccc2)C1 (centres undefined)
*A* 125

*Q* Tell me Ki reported for NC(=O)C(=O)C(Cc1ccccc1)NC(=O)c1cccnc1-n1ccc(C2CCOCC2)n1 (centres undefined)
*A* 48

*Q* Tell me Ki reported for NC(=O)C(=O)C(Cc1ccccc1)NC(=O)c1cccnc1-c1nc(-c2ccccc2)cs1 (centres undefined)
*A* 234
